# MEASURED_ON: Sfβgly (Spodoptera frugiperda, UniProt O61594, N249A)
# Construct: only point mutants assayed here
# Sequence (O61594 17-509 limits assumed, stated change not applied): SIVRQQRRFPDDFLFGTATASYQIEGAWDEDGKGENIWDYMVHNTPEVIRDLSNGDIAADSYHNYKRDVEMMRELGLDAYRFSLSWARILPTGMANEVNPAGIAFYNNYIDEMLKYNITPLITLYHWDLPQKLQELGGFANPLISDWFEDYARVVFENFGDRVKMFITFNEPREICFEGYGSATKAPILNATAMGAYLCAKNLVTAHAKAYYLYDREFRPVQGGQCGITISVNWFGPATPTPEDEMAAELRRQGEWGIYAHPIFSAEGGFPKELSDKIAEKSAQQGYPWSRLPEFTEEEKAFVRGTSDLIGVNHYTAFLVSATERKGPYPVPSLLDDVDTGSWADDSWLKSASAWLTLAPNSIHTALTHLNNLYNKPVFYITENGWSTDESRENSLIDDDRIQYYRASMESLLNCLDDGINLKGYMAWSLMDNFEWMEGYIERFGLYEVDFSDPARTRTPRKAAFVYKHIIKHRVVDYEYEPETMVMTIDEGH
# ASSAY_PROCEDURE: initial rates of NPβglc hydrolysis at […] nm, Lineweaver-Burk replots
ASSAY_METRIC: Ki (mM)
Supply the numeric figure in mM, leaving out any unit text.

c1c[nH]cn1 [imidazole]: 18

Next compound, please.
State its Ki for this compound: NC(CO)(CO)CO [Tris]
0.6

---

# MEASURED_ON: Sfβgly (Spodoptera frugiperda, UniProt O61594, F251A)
# Construct: only point mutants assayed here
# ASSAY_PROCEDURE: initial rates of NPβglc hydrolysis at […] nm, Lineweaver-Burk replots
// values below are reported pKi
When answering, recall that pKi equals minus log10 of the concentration in mol/L, and write that number alone.

NC(CO)(CO)CO: 2.00

Consider now this further compound.
Give the reported value of pKi for this record: `c1c[nH]cn1`
1.92

---

# MEASURED_ON: Sfβgly (Spodoptera frugiperda, UniProt O61594, N249Q)
# Construct: only point mutants assayed here
# Sequence (O61594 17-509 limits assumed, stated change not applied): as above
# ASSAY_PROCEDURE: initial rates of NPβglc hydrolysis at […] nm, Lineweaver-Burk replots
The compounds listed here are annotated with their Ki.

c1c[nH]cn1: 39 mM

Proceeding to the next compound to report its Ki.
Tell me its Ki given `NC(CO)(CO)CO` as the entry.
32 mM

---

# MEASURED_ON: Sfβgly (Spodoptera frugiperda, UniProt O61594, S247Y)
# Construct: only point mutants assayed here
# ASSAY_PROCEDURE: initial rates of NPβglc hydrolysis at […] nm, Lineweaver-Burk replots
The compounds listed here are annotated with their Ki.
# value in mM; strip the unit string

NC(CO)(CO)CO: 71

Return Ki (reported value) for this compound: `c1c[nH]cn1`
35
